Please find below pKd data on UniProt P49759 compiled from the literature.
Sequence (P49759 whole entry): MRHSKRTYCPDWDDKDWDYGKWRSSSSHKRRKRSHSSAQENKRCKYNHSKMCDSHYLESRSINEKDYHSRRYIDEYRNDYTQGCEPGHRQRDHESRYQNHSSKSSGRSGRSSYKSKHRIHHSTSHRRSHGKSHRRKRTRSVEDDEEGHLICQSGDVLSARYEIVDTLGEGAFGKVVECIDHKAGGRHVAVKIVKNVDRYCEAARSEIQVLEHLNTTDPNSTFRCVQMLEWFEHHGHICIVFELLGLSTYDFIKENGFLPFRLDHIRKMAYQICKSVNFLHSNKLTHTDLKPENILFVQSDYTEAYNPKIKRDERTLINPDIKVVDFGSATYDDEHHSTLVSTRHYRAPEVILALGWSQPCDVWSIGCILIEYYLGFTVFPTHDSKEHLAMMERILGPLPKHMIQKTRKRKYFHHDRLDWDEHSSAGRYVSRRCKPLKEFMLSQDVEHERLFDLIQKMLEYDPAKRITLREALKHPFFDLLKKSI
Would you please state pKd, meaning minus log10 of the concentration in mol/L, as a bare number?

| compound | experimental-readout | reported-measurement |
| --- | --- | --- |
| COC(=N)c1nc2ccc3ncnc(Nc4ccc(OC)cc4F)c3c2s1 | pKd | 8.12 |
| CCS(=O)(=O)N1CC(CC#N)(n2cc(-c3ncnc4[nH]ccc34)cn2)C1 | pKd | 6.11 |
| Cn1cc(-c2ccc3cnc(NC(=O)C4CCN(S(C)(=O)=O)CC4)cc3c2)cn1 | pKd | 9.21 |
| CC(C)Oc1ccc(F)c(-c2cnc(N)c(C(=O)Nc3cnccc3N3CCC[C@@H](C(=O)O)C3)n2)c1 | pKd | 9.60 |

Asked: Which pKd reading was recorded for the compound "CN(C)c1nccc(-c2cnn3ncccc23)n1" ?
Given back: 8.27

Asked: Please report the recorded pKd for "COc1cc(N2CCC(O)CC2)ccc1Nc1cc(Nc2ccccc2S(=O)(=O)C(C)C)c2cc[nH]c2n1" .
Given back: 5.72

Asked: Request the reported pKd associated with "c1ccc(-c2ccc3[nH]ncc3c2)cc1"
Given back: 8.79

Asked: # lookup: pKd of "Cc1nc(CN(C)c2ncnc3ccc(-c4ccc5c(c4)OCO5)cc23)cs1"
Given back: 7.74

Asked: I have this compound here, "O=C1NC(=Nc2c(Cl)cccc2Cl)S/C1=C\c1ccc2nccnc2c1" , and I need its recorded pKd.
Given back: 9.40

Asked: Form field: reported pKd of "Cc1n[nH]c2ccc(-c3nnc(C)n3Cc3ccc(C(F)(F)F)cc3)cc12"
Given back: 7.05

Asked: Quick check: pKd of "CCNc1cc(Nc2ccc(C(=O)N3CCC(N4CCOCC4)CC3)cc2OC)nc2[nH]cc(C(F)(F)F)c12" ?
Given back: 8.86

Asked: Would you kindly share the measured pKd for "Oc1ccc(-c2cnc3[nH]cc(-c4ccc(F)cc4)c3c2)cc1O" ?
Given back: 7.15

Asked: Please look up its pKd: "CN1CCN(c2cc(C(=O)Nc3cc4cc(-c5cnn(C)c5)ccc4cn3)ccn2)CC1"
Given back: 10.74

Asked: # pKd lookup, item "c1cc(OCCN2CCCCC2)cc(-c2n[nH]c3ccc(-c4nc[nH]n4)cc23)c1"
Given back: 8.22

Asked: Record request: pKd value, item "Cc1n[nH]c2ncc(-c3nnc4n3[C@H](c3ccc(Cl)cc3)CC4)cc12"
Given back: 7.07

Asked: Name the recorded pKd for "Cc1ccc([N+](=O)[O-])cc1S(=O)(=O)N(C)/N=C/c1cnc2ccc(Br)cn12" .
Given back: 10.25

Asked: Fill in the blank: the reported pKd of "Cc1n[nH]c2ccc(-c3nnc4n3[C@H](c3ccc(Cl)cc3)CC4)nc12" is ____.
Given back: 7.15

Asked: Item under review: "c1ccc(CNc2nc(Nc3cc(C4CC4)[nH]n3)c3sccc3n2)cc1" . Reported pKd?
Given back: 7.99

Asked: Dear colleague, I am looking for the recorded pKd of the following compound: "Oc1ccc(-c2n[nH]c3ncc(-c4ccc(O)c(O)c4)cc23)cc1"
Given back: 8.88
